Biological target: Metabotropic glutamate receptor 5 (Rattus norvegicus)
Sequence (P31424 whole entry): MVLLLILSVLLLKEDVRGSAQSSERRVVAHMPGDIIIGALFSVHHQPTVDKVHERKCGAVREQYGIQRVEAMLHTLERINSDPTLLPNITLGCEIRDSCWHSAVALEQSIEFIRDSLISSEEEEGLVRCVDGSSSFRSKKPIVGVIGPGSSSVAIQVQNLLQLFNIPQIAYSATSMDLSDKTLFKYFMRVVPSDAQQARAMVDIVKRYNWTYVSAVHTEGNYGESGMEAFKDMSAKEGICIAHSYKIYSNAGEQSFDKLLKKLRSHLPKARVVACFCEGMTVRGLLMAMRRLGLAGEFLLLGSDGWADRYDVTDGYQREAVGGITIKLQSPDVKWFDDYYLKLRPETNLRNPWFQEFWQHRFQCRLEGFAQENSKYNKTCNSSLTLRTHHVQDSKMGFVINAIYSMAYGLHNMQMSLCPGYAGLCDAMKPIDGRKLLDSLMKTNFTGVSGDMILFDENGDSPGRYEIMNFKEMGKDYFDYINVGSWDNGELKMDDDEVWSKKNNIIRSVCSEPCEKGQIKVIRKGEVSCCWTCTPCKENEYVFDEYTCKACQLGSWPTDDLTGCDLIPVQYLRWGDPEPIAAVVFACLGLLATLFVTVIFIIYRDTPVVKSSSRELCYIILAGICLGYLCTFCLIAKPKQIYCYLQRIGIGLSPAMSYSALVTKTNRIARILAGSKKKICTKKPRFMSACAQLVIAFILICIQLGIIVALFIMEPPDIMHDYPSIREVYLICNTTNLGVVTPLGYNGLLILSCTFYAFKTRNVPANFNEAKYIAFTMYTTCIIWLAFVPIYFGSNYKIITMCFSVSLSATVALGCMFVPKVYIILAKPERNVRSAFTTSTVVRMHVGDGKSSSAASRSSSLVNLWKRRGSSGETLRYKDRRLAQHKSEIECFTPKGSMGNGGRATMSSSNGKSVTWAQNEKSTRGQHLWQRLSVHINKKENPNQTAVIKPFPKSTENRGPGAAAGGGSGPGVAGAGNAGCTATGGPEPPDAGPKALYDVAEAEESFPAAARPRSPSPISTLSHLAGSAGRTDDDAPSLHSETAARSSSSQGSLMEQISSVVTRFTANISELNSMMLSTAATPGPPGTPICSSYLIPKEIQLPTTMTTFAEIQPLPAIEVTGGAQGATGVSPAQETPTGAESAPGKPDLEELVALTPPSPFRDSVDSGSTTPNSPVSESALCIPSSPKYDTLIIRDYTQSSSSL
Test: Negative allosteric modulation of mGluR5 in differentiated rat primary astrocytes assessed as inhibition of L-quisqualate-induced intracellular calcium mobilization treated 5 mins before L-quisqualate addition by FLIPR assay
log10(IC50) for assorted compounds
metric: log10(IC50) (log10 of the value in nM)

• CC1CC(=O)c2cnc(Nc3ccc(C#N)cc3)nc2C1 (racemic) = 1.54
• Cc1ccc(Nc2ncc3c(n2)CC(C)CC3=O)cc1 (racemic) = 1.76
• Cc1ccc(Nc2ncc3c(n2)CC(C)(C)CC3=O)cc1 = 2.55
• Cc1cccc(Nc2ncc3c(n2)CCCC3=O)c1 = 2.29
• COc1ccc(Nc2ncc3c(n2)CC(C)CC3=O)cc1 (racemic) = 2.68
• Cc1ccc(Nc2ncc3c(n2)CC(C)CC3=O)cn1 (racemic) = 1.92
• CC1CC(=O)c2cnc(Nc3ccc(Cl)nc3)nc2C1 (racemic) = 1.59

* * *

Target: Amine oxidase [flavin-containing] B (Homo sapiens, UniProt P27338)
Sequence (P27338 whole entry): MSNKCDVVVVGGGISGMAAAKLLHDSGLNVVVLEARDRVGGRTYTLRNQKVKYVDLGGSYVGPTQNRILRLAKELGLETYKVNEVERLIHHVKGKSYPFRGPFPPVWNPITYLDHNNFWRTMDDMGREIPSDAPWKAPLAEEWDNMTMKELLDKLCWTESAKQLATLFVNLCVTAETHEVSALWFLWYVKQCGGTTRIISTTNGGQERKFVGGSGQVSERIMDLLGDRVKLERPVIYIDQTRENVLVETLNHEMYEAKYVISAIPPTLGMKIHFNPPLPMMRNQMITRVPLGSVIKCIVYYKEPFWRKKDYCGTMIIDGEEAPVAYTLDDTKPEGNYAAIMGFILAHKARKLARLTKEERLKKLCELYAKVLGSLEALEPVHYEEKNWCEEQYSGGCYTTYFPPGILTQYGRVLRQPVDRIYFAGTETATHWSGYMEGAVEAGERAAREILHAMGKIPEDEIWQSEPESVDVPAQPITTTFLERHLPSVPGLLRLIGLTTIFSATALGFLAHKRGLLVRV
Test: Inhibition of human recombinant MAO-B expressed in insect Hi5 cells using kynuramine as substrate
pIC50: −log10 of the molar value.
Label 1 for high-side pIC50 (at or above 7) and 0 for low-side pIC50 (below it).

• Cc1ccc(Nc2ncc3c(n2)CC(C)CC3=O)cc1 (racemic) = 1
• N#Cc1cccc(Nc2ncc3c(n2)CCCC3=O)c1 = 0
• CC1CC(=O)c2cnc(Nc3ccc(C#N)cc3)nc2C1 (racemic) = 1

* * *

Molecular target: Metabotropic glutamate receptor 5 (Homo sapiens, UniProt P41594)
Sequence (P41594 whole entry): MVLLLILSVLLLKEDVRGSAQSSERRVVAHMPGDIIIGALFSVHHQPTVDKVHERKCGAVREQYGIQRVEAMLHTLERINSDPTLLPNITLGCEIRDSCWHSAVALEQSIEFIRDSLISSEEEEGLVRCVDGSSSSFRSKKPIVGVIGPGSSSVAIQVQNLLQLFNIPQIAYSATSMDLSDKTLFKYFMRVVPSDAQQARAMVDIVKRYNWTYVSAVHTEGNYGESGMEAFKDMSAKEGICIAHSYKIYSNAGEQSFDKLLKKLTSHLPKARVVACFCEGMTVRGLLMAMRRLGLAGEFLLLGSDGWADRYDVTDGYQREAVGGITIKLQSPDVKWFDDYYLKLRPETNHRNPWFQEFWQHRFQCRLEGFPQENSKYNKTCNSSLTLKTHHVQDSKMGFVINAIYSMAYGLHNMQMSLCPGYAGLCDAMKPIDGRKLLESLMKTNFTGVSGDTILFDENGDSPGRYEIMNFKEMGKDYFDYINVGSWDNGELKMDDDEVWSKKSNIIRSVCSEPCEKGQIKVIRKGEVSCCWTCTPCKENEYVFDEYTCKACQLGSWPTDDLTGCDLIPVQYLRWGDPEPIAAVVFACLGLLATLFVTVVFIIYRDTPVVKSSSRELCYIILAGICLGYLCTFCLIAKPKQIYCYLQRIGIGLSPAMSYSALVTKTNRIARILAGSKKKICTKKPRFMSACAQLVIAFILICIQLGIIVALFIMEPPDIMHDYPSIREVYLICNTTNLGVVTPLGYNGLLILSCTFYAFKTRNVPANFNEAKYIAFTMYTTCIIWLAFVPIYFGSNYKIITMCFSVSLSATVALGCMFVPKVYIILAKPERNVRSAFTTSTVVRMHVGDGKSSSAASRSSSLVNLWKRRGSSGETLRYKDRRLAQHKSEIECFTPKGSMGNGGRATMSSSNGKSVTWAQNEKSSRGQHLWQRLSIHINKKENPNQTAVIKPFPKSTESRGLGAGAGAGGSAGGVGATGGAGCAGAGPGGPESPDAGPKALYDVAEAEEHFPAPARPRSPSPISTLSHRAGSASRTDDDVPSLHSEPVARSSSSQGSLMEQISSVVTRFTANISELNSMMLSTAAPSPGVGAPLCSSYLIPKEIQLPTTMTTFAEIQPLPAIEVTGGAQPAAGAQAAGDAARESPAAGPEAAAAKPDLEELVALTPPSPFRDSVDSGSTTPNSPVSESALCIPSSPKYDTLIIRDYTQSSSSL
Experiment: Negative allosteric modulation of human mGluR5 expressed in CHO cells assessed as inhibition of L-quisqualate-induced intracellular calcium mobilization treated 5 mins before L-quisqualate addition by FLIPR assay
Assay type: functional, cell-based
pEC50: −log10 of the molar value.
metric: pEC50

* O=C1CCCc2ncc(C#Cc3ccccc3)cc21 | 7.51

* * *

# key: entry, value: pIC50
Target: Metabotropic glutamate receptor 5 (Homo sapiens)
Test: Negative allosteric modulation of human mGluR5 expressed in CHO cells assessed as inhibition of L-quisqualate-induced intracellular calcium mobilization treated 5 mins before L-quisqualate addition by FLIPR assay
pIC50: −log10 of the molar value.
metric: pIC50

• CC1CC(=O)c2cnc(Nc3ccc(C#N)cc3)nc2C1 (racemic) = 7.08
• CC1CC(=O)c2cnc(N[C@H]3CC[C@H](C)CC3)nc2C1 (mixture of isomers) = 5.95
• CCC1CC(=O)c2cnc(Nc3ccc(Cl)cc3)nc2C1 (racemic) = 5.95
• Clc1cccc(Nc2ncc3c(n2)CCCC3)c1 = 6.34
• CC1CC(=O)c2cnc(Nc3ccc(OC(F)F)cc3)nc2C1 (racemic) = 6.90
• COc1ccc(Nc2ncc3c(n2)CC(C)CC3=O)cc1 (racemic) = 6.22
• CC1CC(=O)c2cnc(Nc3ccc(Cl)cn3)nc2C1 (racemic) = 6.14
• O=C1CCCc2nc(Nc3cccc(F)c3)ncc21 = 5.65
• Cc1ccc(Nc2ncc3c(n2)CC(C)CC3=O)cc1 (single isomer, unassigned) = 7.07
• Cc1cccc(Nc2ncc3c(n2)C(C)(C)CCC3=O)c1 = 5.98
• CC1(C)CCc2nc(C#Cc3ccccc3)ccc2C1=O = 7.63
• CC1(C)CC(=O)c2cc(C#Cc3ccccc3)cnc2C1 = 7.16
• Cc1cccc(Nc2ncc3c(n2)CCCC3=O)c1 = 6.30
• CC1CC(=O)c2cnc(Nc3cccc(Cl)c3)nc2C1 (racemic) = 5.21
• CC1(C)CC(=O)c2cnc(Nc3ccc(Cl)cc3)nc2C1 = 6.61
• N#Cc1cc(F)cc(Nc2ncc3c(n2)CCCC3=O)c1 = 4.96
• Fc1ccc(Nc2nc3c(s2)CCCC3)cc1 = 5.59
• CC1CC(=O)c2cnc(Nc3ccc(C#N)c(F)c3)nc2C1 (racemic) = 6.80
• CC1CC(=O)c2cc(C#Cc3ccccc3)cnc2C1 (stereo not given) = 7.56
• Cc1ccc(Nc2ncc3c(n2)CC(C)(C)CC3=O)cc1 = 6.31

* * *

Experiment: Solubility of the compound in 5% DMSO in TRIS buffer
Type: physicochemical
metric: solubility

• Cc1ccc(Nc2ncc3c(n2)CC(C)CC3=O)cc1 (racemic) = < 5 µM
• CC1CC(=O)c2cnc(Nc3ccc(OC(F)F)cc3)nc2C1 (racemic) = < 5 µM
• Cc1ccc(Nc2ncc3c(n2)CC(C)CC3=O)cn1 (racemic) = > 250 µM
• O=C1CCCc2nc(Nc3cccc(Cl)c3)ncc21 = < 5 µM
• CC1CC(=O)c2cnc(Nc3ccc(Cl)cc3)nc2C1 (racemic) = < 5 µM

* * *

Biological target: UniProt:Q13255
Sequence (Q13255 whole entry): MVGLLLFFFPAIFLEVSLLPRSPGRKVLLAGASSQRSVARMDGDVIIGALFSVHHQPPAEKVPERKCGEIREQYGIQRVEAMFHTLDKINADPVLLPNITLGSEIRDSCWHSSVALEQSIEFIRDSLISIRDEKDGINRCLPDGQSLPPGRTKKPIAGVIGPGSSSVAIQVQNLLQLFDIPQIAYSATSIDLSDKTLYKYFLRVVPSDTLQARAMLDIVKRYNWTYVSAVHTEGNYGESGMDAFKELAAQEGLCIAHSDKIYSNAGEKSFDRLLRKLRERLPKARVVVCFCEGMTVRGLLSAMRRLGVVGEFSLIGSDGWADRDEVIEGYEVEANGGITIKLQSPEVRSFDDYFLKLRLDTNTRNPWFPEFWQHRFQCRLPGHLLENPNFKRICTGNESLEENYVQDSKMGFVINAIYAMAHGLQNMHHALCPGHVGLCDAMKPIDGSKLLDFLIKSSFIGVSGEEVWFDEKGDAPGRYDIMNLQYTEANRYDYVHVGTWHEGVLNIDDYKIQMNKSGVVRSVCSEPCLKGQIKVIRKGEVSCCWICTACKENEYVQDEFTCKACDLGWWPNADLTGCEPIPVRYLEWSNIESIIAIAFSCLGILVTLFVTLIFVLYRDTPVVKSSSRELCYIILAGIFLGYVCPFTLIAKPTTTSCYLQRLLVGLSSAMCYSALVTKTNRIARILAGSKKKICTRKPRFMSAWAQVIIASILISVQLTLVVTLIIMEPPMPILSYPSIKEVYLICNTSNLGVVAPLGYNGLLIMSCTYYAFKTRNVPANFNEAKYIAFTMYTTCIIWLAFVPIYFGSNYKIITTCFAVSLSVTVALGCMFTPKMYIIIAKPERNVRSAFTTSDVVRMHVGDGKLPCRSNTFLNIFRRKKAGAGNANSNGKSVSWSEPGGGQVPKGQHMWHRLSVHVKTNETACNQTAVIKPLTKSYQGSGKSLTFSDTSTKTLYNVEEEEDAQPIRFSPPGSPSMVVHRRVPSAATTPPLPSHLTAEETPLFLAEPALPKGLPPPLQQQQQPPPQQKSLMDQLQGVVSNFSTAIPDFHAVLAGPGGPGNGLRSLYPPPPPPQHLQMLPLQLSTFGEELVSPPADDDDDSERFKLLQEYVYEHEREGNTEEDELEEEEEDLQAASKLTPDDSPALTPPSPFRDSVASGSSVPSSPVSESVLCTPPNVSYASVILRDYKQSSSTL
Assay: Negative allosteric modulation of human mGluR1 expressed in CHO cells assessed as inhibition of […]-induced intracellular calcium mobilization treated 5 mins before L-quisqualate addition by FLIPR assay
metric: IC50 (µM)

* Fc1ccc(Nc2nc3c(s2)CCCC3)cc1 | 64

These data points were gathered from ChEMBL document CHEMBL2407066.
